# targetOrTestSystem: CHUK (human) (UniProt O15111)
# Sequence (O15111 whole entry, looked up): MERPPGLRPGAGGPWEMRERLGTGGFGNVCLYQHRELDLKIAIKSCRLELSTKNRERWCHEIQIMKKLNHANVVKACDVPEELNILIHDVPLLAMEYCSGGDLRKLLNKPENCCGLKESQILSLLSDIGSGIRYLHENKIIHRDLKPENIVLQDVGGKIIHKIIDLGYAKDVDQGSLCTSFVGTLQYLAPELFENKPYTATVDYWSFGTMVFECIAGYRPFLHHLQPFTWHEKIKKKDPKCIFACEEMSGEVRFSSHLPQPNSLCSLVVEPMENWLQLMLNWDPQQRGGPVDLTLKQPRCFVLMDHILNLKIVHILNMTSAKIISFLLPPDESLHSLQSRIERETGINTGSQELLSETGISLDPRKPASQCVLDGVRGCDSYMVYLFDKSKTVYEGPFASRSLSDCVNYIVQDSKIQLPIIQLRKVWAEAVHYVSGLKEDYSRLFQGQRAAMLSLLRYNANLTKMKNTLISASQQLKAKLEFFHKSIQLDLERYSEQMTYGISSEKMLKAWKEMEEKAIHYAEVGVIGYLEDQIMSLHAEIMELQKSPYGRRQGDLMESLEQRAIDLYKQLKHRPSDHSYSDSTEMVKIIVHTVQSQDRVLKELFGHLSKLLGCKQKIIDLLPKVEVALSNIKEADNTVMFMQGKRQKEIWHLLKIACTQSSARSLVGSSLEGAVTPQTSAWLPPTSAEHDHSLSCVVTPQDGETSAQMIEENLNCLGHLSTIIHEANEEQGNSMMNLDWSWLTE
# method: radiometric filter-binding kinase assay, Kinase HotSpot
# conditionLabel: compound 0.5 µM; ATP 10 µM
experimentalReadout: residual activity

> print(dat)
                                 entrysmiles  reportedvalue
 1   N#C/C(=C\c1ccc(O)c(O)c1)C(=O)NCc1ccccc1           103%
 2       CCCCc1c(-c2ccc(OC)cc2)[nH]c2nccnc12          97.3%
 3  COc1cc(Nc2c(C#N)cnc3cc(OCCCN4CCN(C)CC4)c(OC)cc23)c(Cl)cc1Cl          98.1%
 4        CC(C)(C)c1cc(C=C(C#N)C#N)cc(Br)c1O          89.7%
 5  O=C1C(Cl)=C(N2C(=O)CCC2=O)C(=O)c2ccccc21           101%
 6           Ic1cccc(CSc2nnc(-c3ccncc3)o2)c1          96.5%
 7            Cc1nc(-c2ccccc2)c(-c2ccncc2)o1           105%
 8  Cc1cccc(-c2nc(C(C)(C)C)[nH]c2-c2ccc3c(c2)OCO3)n1           108%
 9  Cn1c2ccccc2c2c3c(c4c5ccccc5n(CCC#N)c4c21)CNC3=O           102%
10  O=C(c1cc2cc(O)ccc2[nH]1)c1cc2cc(O)ccc2[nH]1           103%
11  N#Cc1c[nH]c2c[nH]/c(=N\Cc3cccnc3)cc2/c1=N\c1ccc(F)c(Cl)c1          96.3%
12  CS(=O)(=O)CCNCc1ccc(-c2ccc3ncnc(Nc4ccc(OCc5cccc(F)c5)c(Cl)c4)c3c2)o1          99.5%
13  C[C@@H]1CCN(C(=O)CC#N)C[C@@H]1N(C)c1ncnc2[nH]ccc12            95%
14    COc1ccc(Cl)cc1NC(=O)Nc1cc(C)nc2ccccc12           100%
15  COc1cc2ncnc(Nc3ccc(OCc4ccccc4)cc3)c2cc1OC          95.1%
16  CN(C)CCCn1cc(C2=C(c3c[nH]c4ccccc34)C(=O)NC2=O)c2ccccc21           105%

----------
# targetOrTestSystem: UniProt:P08581
# Sequence (P08581 whole entry, looked up): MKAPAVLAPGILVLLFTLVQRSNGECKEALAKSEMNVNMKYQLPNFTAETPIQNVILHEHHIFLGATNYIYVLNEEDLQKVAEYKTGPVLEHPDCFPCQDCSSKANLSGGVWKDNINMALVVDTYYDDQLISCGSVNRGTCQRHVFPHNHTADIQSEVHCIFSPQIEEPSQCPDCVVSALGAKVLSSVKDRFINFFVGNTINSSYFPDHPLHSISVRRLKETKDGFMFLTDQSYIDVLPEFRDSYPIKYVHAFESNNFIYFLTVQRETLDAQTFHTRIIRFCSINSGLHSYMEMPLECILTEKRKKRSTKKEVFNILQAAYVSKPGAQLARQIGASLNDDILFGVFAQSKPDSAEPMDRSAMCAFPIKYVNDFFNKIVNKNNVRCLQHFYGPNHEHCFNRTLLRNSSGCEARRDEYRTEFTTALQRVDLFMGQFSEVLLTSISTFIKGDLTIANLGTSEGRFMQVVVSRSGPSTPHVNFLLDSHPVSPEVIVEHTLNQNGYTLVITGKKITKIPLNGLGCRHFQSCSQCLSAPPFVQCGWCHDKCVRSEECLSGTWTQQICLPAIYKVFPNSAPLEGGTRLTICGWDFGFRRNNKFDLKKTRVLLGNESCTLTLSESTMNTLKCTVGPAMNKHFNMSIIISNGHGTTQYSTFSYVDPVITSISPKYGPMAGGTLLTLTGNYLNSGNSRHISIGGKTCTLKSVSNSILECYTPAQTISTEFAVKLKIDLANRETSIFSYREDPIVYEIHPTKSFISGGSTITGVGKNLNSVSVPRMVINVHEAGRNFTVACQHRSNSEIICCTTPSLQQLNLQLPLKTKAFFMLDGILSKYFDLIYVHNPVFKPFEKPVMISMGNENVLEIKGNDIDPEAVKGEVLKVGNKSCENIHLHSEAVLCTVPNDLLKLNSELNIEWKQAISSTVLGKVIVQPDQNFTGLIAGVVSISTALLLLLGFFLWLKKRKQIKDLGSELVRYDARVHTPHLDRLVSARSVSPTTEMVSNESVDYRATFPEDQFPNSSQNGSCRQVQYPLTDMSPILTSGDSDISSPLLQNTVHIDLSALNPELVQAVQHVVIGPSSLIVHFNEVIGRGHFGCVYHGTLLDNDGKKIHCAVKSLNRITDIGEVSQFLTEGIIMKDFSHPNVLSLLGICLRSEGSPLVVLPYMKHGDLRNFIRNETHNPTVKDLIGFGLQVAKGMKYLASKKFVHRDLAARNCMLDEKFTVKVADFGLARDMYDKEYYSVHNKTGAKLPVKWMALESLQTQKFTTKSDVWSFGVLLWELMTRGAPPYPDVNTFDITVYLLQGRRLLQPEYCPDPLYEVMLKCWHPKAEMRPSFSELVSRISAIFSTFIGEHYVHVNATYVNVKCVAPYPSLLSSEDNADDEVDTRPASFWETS
# method: radiometric filter-binding kinase assay, Kinase HotSpot
# conditionLabel: compound 0.5 µM; ATP 10 µM
experimentalReadout: residual activity (%)

> print(dat)
                                entrysmiles  unitspec  reportedvalue
1        CC(C)(C)c1cc(C=C(C#N)C#N)cc(Br)c1O         %            111
2     COc1ccc2c(c1)/C(=C/c1cnc[nH]1)C(O)=N2         %            103
3               O=C1c2ccccc2-c2nc3nnnn3nc21         %           83.3
4  CN(C)S(=O)(=O)c1ccc2c(c1)/C(=C/c1cc3c([nH]1)CCCC3)C(=O)N2         %           92.2
5      CN(C)c1ccc(/C=C2\C(=O)Nc3ccccc32)cc1         %            101
6    COc1ccc(Cl)cc1NC(=O)Nc1cc(C)nc2ccccc12         %           96.6
7    O=C1NC(=O)c2c1c1c3ccccc3[nH]c1n1cncc21         %           93.4
8  CO[C@@H]1[C@H](N(C)C(=O)c2ccccc2)C[C@H]2O[C@]1(C)n1c3ccccc3c3c4c(c5c6ccccc6n2c5c31)C(=O)NC4         %           89.4
